test system: Bacillus subtilis; test: cleaved RNA product abundance (RNA/gDNA barcode ratio) relative to median wild-type variant (ratio to wild type); higher = more accumulation of the downstream cleavage product; conditions: experiment (reporter, strain, medium): exp 4a: truncated aprE reporter, strain BJT201 with 2% xylose (RNase J1 expressed); cleavage site: cggR-gapA (positions -7 to +36 mutated)
I'd be grateful if you could share measured cleaved RNA product abundance for these entries.
The answer should be a number; do not append a unit.

Challenge: Returns the measured cleaved RNA product abundance for the input sequence. Input: ACAGACGAAGGAGCCGCAAAGAAGTTAATAAGGGATGAATAATCCCTCAATATAAACATCTCTCACTTATTTAAA
Response given: 0.338

Challenge: Using the record for ACAGACGAAGGAGCCGCAATGAAGTTATTAAGGGATGTATAATCCCTCAATTTAAATATCTCTCACTTATTTAAA , report its cleaved RNA product abundance.
Response given: 0.25

Challenge: I would be grateful if you could share the reported cleaved RNA product abundance for ACAGACGAAGGAGCCGCAAAGAAGTTATTAAGGGATCAATAATCCCTCATTATAAATATCTCTCACTTATTTAAA .
Response given: 0.213

Challenge: // returns reported cleaved RNA product abundance for input ACAGACGAAGGAGCCGCAAACAAGTTTTTAAGGGATGAATAATCCCTCAATATAAATATCTCTCACTTATTTAAA
Response given: 0.304

Challenge: Would you mind telling me what cleaved RNA product abundance value was observed for ACAGACGAAGGAGCCGCAAAGAAGTAATTAAGGGATGAATACTCCCTCAATATAAATATCTCTCACTTATTTAAA ?
Response given: 0.324

Challenge: I am curious: what cleaved RNA product abundance value has been reported for ACAGACGAAGGAGCCGCAAAGAAGTTATTAAGGGATGCATAAGCCCTCAATATAAATATCTCTCACTTATTTAAA ?
Response given: 0.732

Challenge: What value of measured cleaved RNA product abundance is listed for ACAGACGAAGGAGCCGCAAAGAATTTATTAAGGGGTGAATAATCCCTCAATATAAATATCTCTCACTTATTTAAA ?
Response given: 0.526

* * *

system: Bacillus subtilis; assay: cleaved RNA product abundance (RNA/gDNA barcode ratio) relative to median wild-type variant (ratio to wild type); higher = more accumulation of the downstream cleavage product; conditions: experiment (reporter, strain, medium): exp 4a: truncated aprE reporter, strain BJT201 with 2% xylose (RNase J1 expressed); cleavage site: cggR-gapA (positions -7 to +36 mutated)
Exercise: state measured cleaved RNA product abundance for each of the sequences provided.
Would you mind answering with just the numeric figure?

Challenge: Given ACAGACGAAGGAGCCGCAAAGAAGTTATTAAGGGATGAATAATCCCTCAATATATATATTTCTCACTTATTTAAA , state its recorded cleaved RNA product abundance.
Response given: 0.817

Challenge: Using the record for ACAGACGAAGGAGCCGCAAAGAAGTTATTAAGGGATTAATAATCCCTCAATATAAATCTCTCTCACTTATTTAAA , report its cleaved RNA product abundance.
Response given: 0.637

Challenge: So what does the record say about cleaved RNA product abundance for ACAGACGAAGGAGCCGCAAAGAAGTTATTTAGGGATGAATAATCTCTCAATATAAATATCTCTCACTTATTTAAA ?
Response given: 0.646

Challenge: Requested field: cleaved RNA product abundance. Item: ACAGACGAAGGAGCCGCAAAGAAGTCATTAAGGGATGAATAAACCCTCAATATAAATATCTCTCACTTATTTAAA
Response given: 0.176

Challenge: Please look up its cleaved RNA product abundance: ACAGACGAAGGAGCCGCAAAGATGTTATTAAGTGATGAATAATCCCTCAATATAAATATCTCTCACTTATTTAAA
Response given: 0.11

Challenge: Tell me the measured cleaved RNA product abundance of ACAGACGAAGGAGCCGCAAAGAAGATATTAAGGGAGGAATAATCCCTCAATATAAATATCTCTCACTTATTTAAA , please.
Response given: 0.643

Challenge: Looking for the measured cleaved RNA product abundance of ACAGACGAAGGAGCCGCAAAGTAGTTATAAAGGGATGAATAATCCCTCAATATAAATATCTCTCACTTATTTAAA , can you help?
Response given: 0.301

Challenge: State the recorded cleaved RNA product abundance for this entry: ACAGACGAAGGAGCCGCAAAGAAGTTATTAAGCGATGAATAATCTCTCAATATAAATATCTCTCACTTATTTAAA
Response given: 0.0997

Challenge: Entry ACAGACGAAGGAGCCGCAAAGAAGTTATTAAGGGGTGAATAATCCGTCAATATAAATATCTCTCACTTATTTAAA has what cleaved RNA product abundance?
Response given: 0.0683

Challenge: Requested field: cleaved RNA product abundance. Item: ACAGACGAAGGAGCCGCAAAGCAGTTATTAAGGGATGAATAATCCCTCAAAATAAATATCTCTCACTTATTTAAA
Response given: 0.468

Challenge: cleaved RNA product abundance for ACAGACGAAGGAGCCGCAAAGAAGTTATTAAGGGATAAATAAACCCTCAATATAAATATCTCTCACTTATTTAAA ?
Response given: 0.445

Challenge: Reported cleaved RNA product abundance for ACAGACGAAGGAGCCGCAAAGAAGTGATTAAGTGATGAATAATCCCTCAATATAAATATCTCTCACTTATTTAAA : what is it?
Response given: 0.0876

Challenge: Name the recorded cleaved RNA product abundance for ACAGACGAAGGAGCCGCAAAGAAGTTATTAAGGGATGAATAATCCTTCAATTTAAATATCTCTCACTTATTTAAA .
Response given: 0.138

Challenge: May I ask what cleaved RNA product abundance has been recorded for ACAGACGAAGGAGCCGCAAAGATGTTATTAAGGGATGAATAATCCTTCAATATAAATATCTCTCACTTATTTAAA ?
Response given: 0.613

Challenge: Reported cleaved RNA product abundance for ACAGACGAAGGAGCCGCAAATAAGTTATTAAGGGTTGAATAATCCCTCAATATAAATATCTCTCACTTATTTAAA : what is it?
Response given: 0.423

Challenge: What value of cleaved RNA product abundance has been recorded for this entry: ACAGACGAAGGAGCCGCAAAGAATTTATTAACGGATGAATAATCCCTCAATATAAATATCTCTCACTTATTTAAA
Response given: 0.203

Challenge: Need cleaved RNA product abundance of ACAGACGAAGGAGCCGCAAAAAAGTTATTAAGGGACGAATAATCCCTCAATATAAATATCTCTCACTTATTTAAA , thanks.
Response given: 0.54

Challenge: Could you share which cleaved RNA product abundance value was measured for ACAGACGAAGGAGCCGCAAAGAAGTTATTAAGGGATGAATTATCCTTCAATATAAATATCTCTCACTTATTTAAA ?
Response given: 0.284

Challenge: Data request, read-out cleaved RNA product abundance, for ACAGACGAAGGAGCCGCAAAGAAGATATTAAGGGATGAATAATACCTCAATATAAATATCTCTCACTTATTTAAA
Response given: 0.237

Challenge: GET /values?readout=cleaved RNA product abundance&item= ACAGACGAAGGAGCCGCAAAGAAGTTATTAAGGTATGAATAATCCCTAAATATAAATATCTCTCACTTATTTAAA
Response given: 0.168

Challenge: Quick one: cleaved RNA product abundance of ACAGACGAAGGAGCCGCAAAGTAGTTATTAAGGGATGAATAGTCCCTCAATATAAATATCTCTCACTTATTTAAA ?
Response given: 0.883

Challenge: Look up cleaved RNA product abundance: ACAGACGAAGGAGCCGCAAAGAAGTTATTAAGGGATGTATATTCCCTCAATATAAATATCTCTCACTTATTTAAA
Response given: 0.88

Challenge: Given ACAGACGAAGGAGCCGCACAGAAGTAATTAAGGGATGAATAATCCCTCAATATAAATATCTCTCACTTATTTAAA , state its recorded cleaved RNA product abundance.
Response given: 0.391

Challenge: Can you look up the measured cleaved RNA product abundance of ACAGACGAAGGAGCCGCAAAGAACTTATTAAGGGATGAATAATCCCTCAACATAAATATCTCTCACTTATTTAAA for me?
Response given: 0.227

Challenge: Suppose we examine the sequence ACAGACGAAGGAGCCGCATAGAAGTTATTAAGGGATGAATAATCCGTCAATATAAATATCTCTCACTTATTTAAA ; what cleaved RNA product abundance value has been reported?
Response given: 0.235

Challenge: Please report the recorded cleaved RNA product abundance for ACAGACGAAGGAGCCGCAAAGATGTTATTAAGGTATGAATAATCCCTCAATATAAATATCTCTCACTTATTTAAA .
Response given: 0.161

Challenge: Any idea what cleaved RNA product abundance was measured for ACAGACGAAGGAGCCGCGAAGAAGTTATTAAGGGATGAATAAACCCTCAATATAAATATCTCTCACTTATTTAAA ?
Response given: 0.467

Challenge: Please give the measured cleaved RNA product abundance for this sequence: ACAGACGAAGGAGCCGCACAGAAGTTATTAACGGATGAATAATCCCTCAATATAAATATCTCTCACTTATTTAAA
Response given: 0.197

Challenge: GET /values?readout=cleaved RNA product abundance&item= ACAGACGAAGGAGCCGCAAAAAAGTTATTAAGGGATGAATAATCCCTCAATATAAATGTCTCTCACTTATTTAAA
Response given: 0.309

Challenge: Can you share its cleaved RNA product abundance? I mean this sequence: ACAGACGAAGGAGCCGCAAAGAAGTTATTAAGGGATAAATAACCCCTCAATATAAATATCTCTCACTTATTTAAA
Response given: 0.499
